Test system: Fusarium oxysporium f. sp. cucumeris
Assay type: cell-based
Conditions: read-out: Inhibition rate, Fc
# Lookup of reported inhibition at 50 µg/mL keyed by entry
MEASUREMENT_TYPE: inhibition at 50 µg/mL (%)

COMPOUND: CN(C)c1ccc(C=NNC(=O)Cn2ccc(=O)c3ccccc32)cc1 [Compound 8]
TEST_TARGET: Fusarium oxysporium f. sp. cucumeris
MEASUREMENT_TYPE: inhibition at 50 µg/mL
MEASUREMENT_UNIT: %
DATA_VALUE: 16.3
--
COMPOUND: CSc1ccc(C=NNC(=O)Cn2ccc(=O)c3ccccc32)cc1 [Compound 10]
TEST_TARGET: Fusarium oxysporium f. sp. cucumeris
MEASUREMENT_TYPE: inhibition at 50 µg/mL
MEASUREMENT_UNIT: %
DATA_VALUE: 12.2
--
COMPOUND: O=C(Cn1ccc(=O)c2ccccc21)NN=Cc1ccc(Cl)cc1 [Compound 13]
TEST_TARGET: Fusarium oxysporium f. sp. cucumeris
MEASUREMENT_TYPE: inhibition at 50 µg/mL
MEASUREMENT_UNIT: %
DATA_VALUE: 24.5
--
COMPOUND: O=C(Cn1ccc(=O)c2ccccc21)NN=Cc1cccnc1 [Compound 19]
TEST_TARGET: Fusarium oxysporium f. sp. cucumeris
MEASUREMENT_TYPE: inhibition at 50 µg/mL
MEASUREMENT_UNIT: %
DATA_VALUE: 26.5
--
COMPOUND: O=C(Cn1ccc(=O)c2ccccc21)NN=Cc1ccc(-n2cccn2)cc1 [Compound 9]
TEST_TARGET: Fusarium oxysporium f. sp. cucumeris
MEASUREMENT_TYPE: inhibition at 50 µg/mL
MEASUREMENT_UNIT: %
DATA_VALUE: 18.4
--
COMPOUND: O=C(Cn1ccc(=O)c2ccccc21)NN=Cc1ccccc1 [Compound 1]
TEST_TARGET: Fusarium oxysporium f. sp. cucumeris
MEASUREMENT_TYPE: inhibition at 50 µg/mL
MEASUREMENT_UNIT: %
DATA_VALUE: 22.4
--
COMPOUND: O=C(Cn1ccc(=O)c2ccccc21)NN=Cc1ccc([N+](=O)[O-])cc1 [Compound 15]
TEST_TARGET: Fusarium oxysporium f. sp. cucumeris
MEASUREMENT_TYPE: inhibition at 50 µg/mL
MEASUREMENT_UNIT: %
DATA_VALUE: 24.5
--
COMPOUND: O=C(Cn1ccc(=O)c2ccccc21)NN=Cc1cscn1 [Compound 22]
TEST_TARGET: Fusarium oxysporium f. sp. cucumeris
MEASUREMENT_TYPE: inhibition at 50 µg/mL
MEASUREMENT_UNIT: %
DATA_VALUE: 12.2
--
COMPOUND: O=C(Cn1ccc(=O)c2ccccc21)NN=Cc1coc2ccccc12 [Compound 24]
TEST_TARGET: Fusarium oxysporium f. sp. cucumeris
MEASUREMENT_TYPE: inhibition at 50 µg/mL
MEASUREMENT_UNIT: %
DATA_VALUE: 22.4

----------
Tested on: TMV
Test: Inactivation effect of compounds against TMV in vivo
Set-up: species or system tobacco mosaic virus
Settings: Tobacco mosaic virus, read-out: relative inhibition rate (%) inactive effect
# label = y if inhibition at 500 µg/mL >= 30% else n

CHEM_SMILES: Cc1ccc(C=NNC(=O)Cn2ccc(=O)c3ccccc32)cc1
ASSIGNED_LABEL: n
//
CHEM_SMILES: O=C(Cn1ccc(=O)c2ccccc21)NN=Cc1ccc(Cl)cc1
ASSIGNED_LABEL: n
//
CHEM_SMILES: O=C(Cn1ccc(=O)c2ccccc21)NN=Cc1cccnc1
ASSIGNED_LABEL: n
//
CHEM_SMILES: O=C(Cn1ccc(=O)c2ccccc21)NN=Cc1ccc(C(F)(F)F)cc1
ASSIGNED_LABEL: y
//
CHEM_SMILES: CN(C)c1ccc(C=NNC(=O)Cn2ccc(=O)c3ccccc32)cc1
ASSIGNED_LABEL: n
//
CHEM_SMILES: O=C(Cn1ccc(=O)c2ccccc21)NN=Cc1cc2ccccc2[nH]1
ASSIGNED_LABEL: y
//
CHEM_SMILES: COc1cccc(C=NNC(=O)Cn2ccc(=O)c3ccccc32)c1
ASSIGNED_LABEL: y
//
CHEM_SMILES: O=C(Cn1ccc(=O)c2ccccc21)NN=Cc1ccc([N+](=O)[O-])cc1
ASSIGNED_LABEL: n

----------
Test system: TMV
Experiment: Curative effect of compounds against TMV in vivo
Conditions: Tobacco mosaic virus, read-out: relative inhibition rate (%) curative effect
# Lookup of reported inhibition at 100 µg/mL keyed by entry
MEASUREMENT_TYPE: inhibition at 100 µg/mL

MOLECULE: O=C(Cn1ccc(=O)c2ccccc21)NN=Cc1ccc(C(F)(F)F)cc1
MEASUREMENT_TYPE: inhibition at 100 µg/mL
DATA_VALUE: 17.7%
//
MOLECULE: NNC(=O)Cn1ccc(=O)c2ccccc21
MEASUREMENT_TYPE: inhibition at 100 µg/mL
DATA_VALUE: 8.2%
//
MOLECULE: COc1cccc(C=NNC(=O)Cn2ccc(=O)c3ccccc32)c1
MEASUREMENT_TYPE: inhibition at 100 µg/mL
DATA_VALUE: 14%
//
MOLECULE: O=C(Cn1ccc(=O)c2ccccc21)NN=Cc1ccc(-c2ccccc2)cc1
MEASUREMENT_TYPE: inhibition at 100 µg/mL
DATA_VALUE: 10.1%
//
MOLECULE: O=C(Cn1ccc(=O)c2ccccc21)NN=Cc1cc2ccccc2[nH]1
MEASUREMENT_TYPE: inhibition at 100 µg/mL
DATA_VALUE: 6.6%
//
MOLECULE: NC(=O)c1ncn([C@@H]2O[C@H](CO)[C@@H](O)[C@H]2O)n1 [Ribavirin, reference compound]
MEASUREMENT_TYPE: inhibition at 100 µg/mL
DATA_VALUE: 10.1%

----------
Tested on: Fusarium oxysporium f. sp. cucumeris
Format: cell-based
Settings: read-out: Inhibition rate, Fc
# Lookup of reported inhibition at 50 µg/mL keyed by entry

CHEM_SMILES: O=C(Cn1ccc(=O)c2ccccc21)NN=Cc1cc2ccccc2[nH]1
inhibition at 50 µg/mL (%): 6.1
--
CHEM_SMILES: COc1cccc(C=NNC(=O)Cn2ccc(=O)c3ccccc32)c1
inhibition at 50 µg/mL (%): 36.7
--
CHEM_SMILES: O=C(Cn1ccc(=O)c2ccccc21)NN=Cc1ccc(-c2ccccc2)cc1
inhibition at 50 µg/mL (%): 22.4
--
CHEM_SMILES: COc1ccc(C=NNC(=O)Cn2ccc(=O)c3ccccc32)cc1OC
inhibition at 50 µg/mL (%): 16.3

Numbers sourced from paper PMC11360041.
